# Measured on: human renin (Homo sapiens)
# Construct: from tissue; host or cells: human plasma from blood of healthy volunteers
# Method notes: In vitro human renin inhibition (renin activity in human plasma, angiotensin I radioimmunoassay)
# Assay type: biochemical
# Experimental: In vitro human renin inhibition Renin inhibitory activity was estimated as the percentage change in renin activity in human plasma in the presence and absence of compound. The source of plasma was blood taken from healthy volunteers. Renin activity was defined by the difference in angiotensin I levels between two halves of a sample, one incubated at 37^o and the other at 4^o for 2h. Angiotensin I levels were measured using a ¹²⁵I- angiotensin I radioimmunoassay kit (NEN/DuPont, Stevenage). […]
Outcome measure: pIC50
Please keep in mind that pIC50 is minus log10 of the molar concentration; only the number is needed.

# Compound, Outcome measure, Result
rows = [
    ("CC(C)C[C@H](NC(=O)[C@H](Cc1ccccc1)NC(=O)CCn1c(=O)[nH]c2ccccc21)C(=O)N[C@@H](CC1CCCCC1)[C@@H](O)CC(=O)NCCCn1ccnc1", "pIC50", 7.37),
]

Next up:
q: Consider the compound CC(=O)NCCNC(=O)C[C@H](O)[C@H](CC1CCCCC1)NC(=O)[C@H](CC(C)C)NC(=O)[C@H](Cc1ccccc1)NC(=O)CC1CS(=O)(=O)c2ccccc21 (some centres unmarked) . State its measured pIC50.
a: 7.06

---

# Measured on: human renin (Homo sapiens, UniProt P00797)
# Construct: from tissue; host or cells: human plasma from blood of healthy volunteers
# Method notes: In vitro human renin inhibition (renin activity in human plasma, angiotensin I radioimmunoassay)
# Assay type: biochemical
# Assay context: human plasma from healthy volunteers; angiotensin I difference between 37° and 4° incubation for 2h; linear regression of at least three concentrations; read-out: IC₅₀
Outcome measure: IC50
Returns: string containing the numeric result and its unit.

The examples below pair each entry with its known result.
# Compound, IC50
records = [
    ("CC(C)C[C@H](NC(=O)[C@H](Cc1ccccc1)NC(=O)CC1CS(=O)(=O)c2ccccc21)C(=O)N[C@@H](CC1CCCCC1)[C@@H](O)CC(=O)NCCCN1CCCC1=O (some centres unmarked)", "0.027 µM"),
    ("COC(=O)CCCCNC(=O)C[C@H](O)[C@H](CC1CCCCC1)NC(=O)[C@H](CC(C)C)NC(=O)[C@H](Cc1ccccc1)NC(=O)CC1CS(=O)(=O)c2ccccc21 (some centres unmarked)", "0.03 µM"),
    ("CC(C)C[C@H](NC(=O)[C@H](Cc1ccccc1)NC(=O)CCCC1Cc2ccc(N)cc2S1(=O)=O)C(=O)N[C@@H](CC1CCCCC1)[C@@H](O)CC(=O)NCCCn1ccnc1 (some centres unmarked) [Example E34a]", "0.012 µM"),
    ("CC(C)C[C@H](NC(=O)[C@H](Cc1ccccc1)NC(=O)CCCC1Cc2ccccc2S1(=O)=O)C(=O)N[C@@H](CC1CCCCC1)[C@@H](O)CC(=O)NCCCn1ccnc1 (some centres unmarked) [Example E50a]", "0.014 µM"),
]

Next up:
q: Consider the compound CC(C)C[C@H](NC(=O)[C@H](Cc1ccccc1)NC(=O)CC1CS(=O)(=O)c2ccccc21)C(=O)N[C@@H](CC1CCCCC1)[C@@H](O)CC(=O)NCCCCn1ccnc1 (some centres unmarked) . State its measured IC50.
a: 0.037 µM

---

# Measured on: human renin (Homo sapiens)
# Construct: from tissue; host or cells: human plasma from blood of healthy volunteers
# Sequence (P00797 67-406): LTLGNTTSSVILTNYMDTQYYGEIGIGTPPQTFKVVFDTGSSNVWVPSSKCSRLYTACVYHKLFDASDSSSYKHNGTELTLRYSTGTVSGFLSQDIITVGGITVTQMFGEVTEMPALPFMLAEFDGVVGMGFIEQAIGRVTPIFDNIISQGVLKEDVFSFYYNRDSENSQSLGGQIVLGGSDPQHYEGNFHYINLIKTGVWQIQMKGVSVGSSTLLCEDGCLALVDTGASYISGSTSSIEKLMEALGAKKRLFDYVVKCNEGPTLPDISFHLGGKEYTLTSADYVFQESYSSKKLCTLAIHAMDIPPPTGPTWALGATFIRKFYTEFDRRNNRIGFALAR
# Method notes: In vitro human renin inhibition (renin activity in human plasma, angiotensin I radioimmunoassay)
# Type: biochemical
# Assay context: read-out: IC₅₀; human plasma from healthy volunteers; angiotensin I difference between 37° and 4° incubation for 2h; linear regression of at least three concentrations
Outcome measure: IC50 (nM)
Kindly answer with a numeric value in nM, unit omitted.

q: Provide IC50, system human renin (Homo sapiens), entry CC(C)C[C@H](NC(=O)[C@H](Cc1ccccc1)NC(=O)CC1CS(=O)(=O)c2cc(CNC(=O)OC(C)(C)C)ccc21)C(=O)N[C@@H](CC1CCCCC1)[C@@H](O)CC(=O)NCCCn1ccnc1 (stereo partly shown) [Example E51]
a: 53
